- measurement target: Pantothenate synthetase (Mycobacterium tuberculosis (strain ATCC 25618 / H37Rv)) (UniProt P9WIL5)
- Sequence (P9WIL5 whole entry, looked up): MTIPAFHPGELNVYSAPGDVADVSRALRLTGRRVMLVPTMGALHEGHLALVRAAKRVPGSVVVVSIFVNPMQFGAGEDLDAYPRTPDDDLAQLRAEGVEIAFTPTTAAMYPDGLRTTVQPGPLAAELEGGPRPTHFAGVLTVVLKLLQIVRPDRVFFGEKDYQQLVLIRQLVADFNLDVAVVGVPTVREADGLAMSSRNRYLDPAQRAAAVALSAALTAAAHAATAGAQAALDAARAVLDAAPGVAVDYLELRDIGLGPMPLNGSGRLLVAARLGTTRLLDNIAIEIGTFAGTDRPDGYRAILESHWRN
- experimental protocol: Coupled enzyme confirmation of inhibitors against recombinant Mtb PanC (AID 375);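 also: 0% = full reaction with vehicle and 100% = no enzyme background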
- condition label: coupled enzyme assay; at 10 µM, active compounds read high
Active and inactive are the calls of the source. No rule for the calls is given here.
Kindly state inhibition for each of the entries shown.

Recorded inhibition, per entry:
O=C(NCCSCc1ccco1)Nc1cccc(Cl)c1	3% (inactive)
Cc1onc(-c2ccccc2)c1C(=O)NCc1cccnc1	10% (inactive)
Cc1cccc(-c2nnc(SCC#N)n2-c2cccc(Cl)c2)c1	0% (inactive)
COCC(=O)Nc1c(C(=O)Nc2ccccc2OC)oc2ccccc12	1% (inactive)
O=C(c1ccccc1Oc1nnnn1-c1ccccc1)N1CCOCC1	0% (inactive)

Answer for every listed entry: what is its inhibition? The entries follow.
1. CCn1c(SCC(=O)N2c3ccccc3CCc3ccccc32)nc2c1c(=O)n(C)c(=O)n2C
2. N#CCSc1nc2c(c(C3CC=CCC3)c1C#N)CCC2 (centres undefined)
3. COCCCNC(=O)CSc1ccc(Cl)cc1

1% (inactive)
6% (inactive)
0% (inactive)

Answer for every listed entry: what is its inhibition? The entries follow.
1. CCCc1nnc2n1N=C(c1ccc(-c3cc(Cl)ccc3Cl)o1)CS2
2. COc1ccc(C2(CN(C(C)=O)C(C)=O)CCCC2)cc1OC
3. CCCCOc1ccc(-c2ncc(C(=O)OCC)c(N)n2)cc1
4. NC(=O)CSP(=O)(c1ccccc1)c1ccccc1
5. CC(=Nc1ccc(C)c(C)c1)C1=C(O)CCC1=O
6. Cc1cc(=O)n2[nH]c(COc3ccccc3)nc2n1

1: 0% (inactive); 2: 2% (inactive); 3: 11% (inactive); 4: 0% (inactive); 5: 3% (inactive); 6: 6% (inactive)

Answer for every listed entry: what is its inhibition? The entries follow.
1. CCOC(=O)c1c(C(F)(F)C(F)(F)C(F)(F)C(F)(F)F)n[nH]c1C
2. CCOC(=O)C1=C(CC)Nc2ccccc2N=C1NC(=O)Cn1cnc2ccccc2c1=O
3. Cc1cc2ccccc2c(=O)n1CC(=O)Nc1ccc2c(c1)OCO2
4. C=CCNC(=O)CSc1ccc(Cl)cc1
5. O=C(Nc1ccc(N2CCCC2)cc1)c1cccc(F)c1
6. CSc1nnc(-c2nnc(SC)n2-c2ccccc2)n1-c1ccccc1
7. COc1ccc(CN(C(=O)CNC(=O)c2ccco2)C(C(=O)NC2CCCC2)c2ccco2)cc1 (centres undefined)
8. Cc1cc(NC(=O)CSc2nc3c(c(=O)n2Cc2ccccc2)SC(C)C3)no1 (centres undefined)

8% (inactive)
0% (inactive)
0% (inactive)
0% (inactive)
4% (inactive)
0% (inactive)
5% (inactive)
0% (inactive)

Answer for every listed entry: what is its inhibition? The entries follow.
1. CC(C)NC(=O)CSCc1ccccc1Cl
2. CCOC(=O)CSc1nc2ccccc2c(=O)n1NC(=O)c1ccccc1

1. 13% (inactive)
2. 1% (inactive)

----------
- measurement target: Pantothenate synthetase (Mycobacterium tuberculosis (strain ATCC 25618 / H37Rv))
- experimental protocol: Coupled enzyme confirmation of inhibitors against recombinant Mtb PanC (AID 375);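 also: 0% = full reaction with vehicle and 100% = no enzyme background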
- condition label: coupled enzyme assay; at 10 µM, active compounds read high
measure: inhibition (%)
Numbers only, in %.

CSc1nc(C)c(C(=O)Nc2ccccc2)c(C)c1C#N	0
COC(=O)C1=C(C)OC(N)=C(C#N)C1c1c(C)nn(-c2ccccc2)c1Cl (stereo unspecified)	0
CCn1c(=S)ccc2ccc(OC)cc21	0
CCn1c(CCNC(=O)c2cccs2)nnc1SCC(=O)c1ccc(OC)cc1	0
NS(=O)(=O)c1ccc(NCc2c(F)cccc2Cl)cc1	2
O=C(CN1CCCN(S(=O)(=O)c2ccc(F)cc2)CC1)Nc1ccccc1Br	5
O=C(CSCc1cccs1)N1CCCC1	3
CCCCCCNS(=O)(=O)c1ccc(Cl)s1	2
COC(=O)C1=C(N)Oc2cc(C)n(Cc3ccncc3)c(=O)c2C1c1cccnc1 (stereo unspecified)	0
O=c1oc2ccccc2c(O)c1CN1CCCCC1	0

Answer for every listed entry: what is its inhibition? The entries follow.
1. CN(C(=O)c1ccncc1)C1CC(C)(C)N(O)C(C)(C)C1
2. Cc1nc2ccc(NC(=O)NCc3ccco3)cc2s1
3. Cc1ccc(NC(=O)CN2CC(C)SC2=NC2CCCCC2)cc1 (stereo unspecified)

1: 0; 2: 0; 3: 6

Answer for every listed entry: what is its inhibition? The entries follow.
1. CC(C)CCNC(=O)Cn1c(NCCC(C)C)nc2c1c(=O)n(C)c(=O)n2C
2. COCCCN1C(=O)C(O)=C(C(C)=O)C1c1ccccn1 (stereo unspecified)
3. COc1ccc(-c2[nH]nc3c2C(c2ccccc2OC(=O)N2CCOCC2)C(C#N)=C(N)O3)cc1 (stereo unspecified)
4. Nc1nnc(-c2cn(-c3ccccc3)nc2-c2ccccc2)o1
5. CCOC(=O)Nc1c(O)ccc2oc(C)c(-c3ccccc3)c12

1: 0; 2: 3; 3: 5; 4: 0; 5: 0

Answer for every listed entry: what is its inhibition? The entries follow.
1. COc1ccc(OC)c(S(=O)(=O)Nc2ccc(O)c3ccccc23)c1
2. COc1ccc(-c2cc3c(=O)n(CC(=O)NC4CCN(Cc5ccccc5)CC4)ncn3n2)cc1
3. CCOCCCN(Cc1cc2cc(C)cc(C)c2[nH]c1=O)C(=O)N(CC)CC
4. Cc1cccc(-n2nnc(C(=O)NCc3ccccc3)c2N)c1
5. O=C(Nc1nnc(COc2ccc(F)cc2)s1)c1cccs1
6. O=C(O)c1cc2c(s1)CCCC2
7. Cc1ccc(S(=O)(=O)N2CCC(C(=O)N3CCC[C@H]3C(=O)NCc3ccccc3)CC2)cc1

1: 8; 2: 1; 3: 0; 4: 0; 5: 5; 6: 0; 7: 0

Answer for every listed entry: what is its inhibition? The entries follow.
1. O=C(c1ccco1)N1CCN(C(=O)C2CCN(S(=O)(=O)c3cccc4nsnc34)CC2)CC1
2. C[C@]12CC[C@@H]3c4ccc(OS(=O)(=O)O)cc4CC[C@H]3[C@@H]1CCC2=O
3. O=C1CCC(c2ccccc2)N1C(=O)c1cccnc1 (stereo unspecified)
4. CS(=O)(=O)N(CC(=O)NCCSCc1cccc(Cl)c1)c1ccc2c(c1)OCO2

10
0
0
1
